- System: MS2 coat protein
- Test Protocol: apparent KD of MS2 coat protein; higher = weaker reporter binding
- Particulars: Eterna round: R107; input ligand: tryptophan 2.4 mM
The threshold is inclusive: apparent KD of MS2 coat protein of exactly 60 nM counts as true; values below receive false.

{"columns": ["Sequence Chain", "Classification"],
 "data": [
  ["AAUAACAUGAGGAUCACCCAUGUAAAAGAUACCAGAUGCAUGAUGAUCCCUUGGCAGCUUAAACGCGAUUGAUUACAAUCGCGAA [Mat - Same State Theophlline A - Mod of Eli - D10]", "false"],
  ["UGACAUUGCUCAGAUACCAGACAUGAGGAUCACCCAUGUACCAAGAAAACGUACAAUAAUGUCCCUUGGCAGCUGAGCAAUGUCU [TheoBX 9 #MS2Left #Theo2]", "true"],
  ["AAUAACAUGAGGAUCACCCAUGUAAAAGAUACCAGAUGCAUGAUGAUCCCUUGGCAGCUUAACGCUGAUUGGAAACAAUCAGCGA [Mat - Same State Theophlline A - Mod of Eli - D9]", "false"]
]}

Say whether AUUCCAUAGGUGCAGUUGUUAAAUGGCGAUACCAGCGUGGAAACACGCCCUUGGCAGCGCCAAAACAUGAGGAUCACCCAUGUUA [Kladno] shows apparent KD of MS2 coat protein of 60 nM or more.
true

Say whether ACAUGAGGAUCACCCAUGUGCAGAACGGAUACCAGCGUCCUGGUACGCCCUUGGCAGCCGGACAUGAGGAUCACCCAUGUGUGGA [Exclusion Theophylline A GF29] shows apparent KD of MS2 coat protein of 60 nM or more.
true

Say whether ACAUGAGGAUCACCCAUGUAAUUAACAGAAGGAGCGUGAUGGAUCACAGGUAGGUCGCUGUACUUAGAAAUAACUCUCAUGAAUA [JR_Nu_SSArginiA_Sub024] shows apparent KD of MS2 coat protein of 60 nM or more.
false

Say whether UGUAUGUGAUCUGAUACCAGUCCAACUGGUAAAACUUGAGGAUCACCCAAGUAAAAUUGGGACCCUUGGCAGCAGAUCGCAUACU shows apparent KD of MS2 coat protein of 60 nM or more.
true

Say whether GCUAGCCGAAAGGCUAGCAGCGCUACAGAAGGAGCGUGCGAAAGCACAGGUAGGUCGCUGAACAUGAGCAUCAGCCAUGUUGCGC [SSAA - Alter Amptam #2 V2+NP] shows apparent KD of MS2 coat protein of 60 nM or more.
false

Say whether GAUUACAUGAGGAUCACCCAUGUAACUGAAGGAGCGGUAAUAAAGCCAGGUAGGUCGCAGAACGACAUGUGGUUCAUCCAUGUAA [#15 Exclusion - Arginine A] shows apparent KD of MS2 coat protein of 60 nM or more.
false

Say whether AGCUGGGAUCCUCAGCGUCAAAGACGCAGUCGAGGACCGGUACGGCCGCCACUCGACACGAGGAUCACCCGUGUCAUUCCCAGCA [TrypAX 1 #SwitchBubble #AlternativeMS2 #MS2Late #CuTurnoff] shows apparent KD of MS2 coat protein of 60 nM or more.
true

Say whether UGGUAUGUAGGAAGGAGCGCAUACUUCACAUGAGGAUCACCCAUGUCAAGACGUGAGUCAGUGCAGGUAGGUCGCCUAGUUAUGA [Same State - Arginine B (Freestyle 21)] shows apparent KD of MS2 coat protein of 60 nM or more.
false

Say whether CGGUCGGUCGGCCGGUGAUUAUGGGAUGAAGGAGCGUGGGAAGCUACAGGUAGGUCGCAUCCGAAACAUCACGAUCACGGAUGUU [SSArg A #26Alt-Ms2 Mod] shows apparent KD of MS2 coat protein of 60 nM or more.
true

Say whether GGGUACAUCGCGGCCGCCACUCAUGUAAAUACAUGAGGAUCACCCAUGUCGAUGGAGACAUCGGAGAGGACCGGGCGAUGUACCG shows apparent KD of MS2 coat protein of 60 nM or more.
true

Say whether AGACAUGAGGAUCACCCAUGUAGCAUGGAUACCAGAUGUAGAUUAGUCCCUUGGCAGCUGUGGUGAAGUGAUGCAUUGCUCCUAG [Exclusion - Theophylline A (Freestyle 2)] shows apparent KD of MS2 coat protein of 60 nM or more.
false

Say whether AGACAUGAGGAUCACCCAUGUAGUAUGGAUACCAGAUCCAGAUUUAUCCCUUGGCAGCUGUGGUACAGCGUUGCAUCGCUCCUAG [Exclusion - Theophylline A (Freestyle 13)] shows apparent KD of MS2 coat protein of 60 nM or more.
false

Say whether UAGAAGAACAUGCGGGCUCCGGACGGUGAUACCAGAUCGAAAAGGAUCCCUUGGCAGCACUGCACAUGAGGAUCACCCAUGUGCA [theeternabot_exclusion_MS2_Theo_A_7] shows apparent KD of MS2 coat protein of 60 nM or more.
false

Say whether UGACAUUGCUCAGAUACCAGACAUGAGGAUCACCCAUGUACCAAGAAAGUACAAUAAAAUGUCCCUUGGCAGCUGAGCAAUGUCU [TheoBX 8 #MS2Left #Theo2] shows apparent KD of MS2 coat protein of 60 nM or more.
true

Say whether UCGACAGUGAACGAUACCAGCGUCACGUGGCCGGUGGUCACAUGAGGAUCACCCAUGUAACGCCCUUGGCAGCGUGCACGUAUCC [Berisoor] shows apparent KD of MS2 coat protein of 60 nM or more.
false

Say whether UAAUCUGGUCUUCGAUAGGUGAUCCUCAAACGAGGACCGGUACGGCCGCCACUCGAUAACAUGAGGAUCACCCAUGUACGAGUGA [|T'-M'-Trp-Ms2|_Design16b] shows apparent KD of MS2 coat protein of 60 nM or more.
true

Say whether GGACUAACCAGAAGGAGCGGCGCGCAGAAACUGCUAAUUCCUCCGCACGAGGAUCACCCGUGUCAGGUAGGUCGCUGGUUAGUCG [ArgBX 28] shows apparent KD of MS2 coat protein of 60 nM or more.
false

Say whether CGGUACAUGAGGAUCACCCAUGUGUCGGAUACCAGAGAGCCGUCUCUCCCUUGGCAGCUGGUUUUACAUGAGGAUCACCCAUGUG [Exclusion Theophylline A GF20] shows apparent KD of MS2 coat protein of 60 nM or more.
false

The values you see were collected from the supplement of paper PMC9170038.
